- Test system: MAGL Selectivity
- testDetails: LYPLA1/LYPLA2 inhibition with serine hydrolase anti-target selectivity, late-stage follow-up, selectivity assay for LYPLA1/LYPLA2 inhibitor project, cell lysate, mouse brain membrane proteome, FP-Rh fluorescence, powders (AID 743117)
- measurementParameters: gel-based ABPP FP-Rh fluorescence, measured here: MAGL Selectivity, anti-target concentration >50% inhibition, stronger effect = lower value
readoutLabel: concentration for >50% inhibition (µM)
Numeric only. Scale: µM

compound	concentration for >50% inhibition, µM
COc1ccc(C(=O)N2CCN3C(=O)N(OC(=O)N4CCC(CCc5ccc(Cl)cc5)CC4)C(=O)C3C2)cc1 (centres undefined)	10
O=C(ON1C(=O)C2CN(C(=O)N3CCCCC3)CCN2C1=O)N1CCC(CCc2ccc(Cl)cc2)CC1 (centres undefined)	10
O=C(ON1C(=O)C2CN(Cc3ccc(Br)cc3)CCN2C1=O)N1CCC(CCc2ccc(Cl)cc2)CC1 (centres undefined)	100

Pending compound:
Problem: Under MAGL Selectivity: concentration for >50% inhibition value of O=C(ON1C(=O)C2CN(C(=O)c3ccc(F)c([N+](=O)[O-])c3)CCN2C1=O)N1CCC(CCc2ccc(Cl)cc2)CC1 (centres undefined) ?
Solution: 100
